system: Caco-2 cell monolayer; assay: Cellular accumulation (CA) of flavonoids in Caco-2 cell monolayer; conditions: Caco-2 monolayer
API: label(entry) gives t if the entry's Ratioc (ratio of CA B to A to CA A to B) is strictly smaller than 2; on equality or larger values it gives f.

Q: Does the reported Ratioc (ratio of CA B to A to CA A to B) of the following molecule sit strictly below 2? "O=C1C[C@@H](c2ccc(O)cc2)Oc2cc(O)cc(O)c21"
A: f

Q: Could you please tell me whether Ratioc (ratio of CA B to A to CA A to B) recorded for "O=c1cc(-c2ccc(O)cc2)oc2cc(O)cc(O)c12" is less than 2?
A: t

Q: is_below(Ratioc (ratio of CA B to A to CA A to B), 2) for "O=c1cc(-c2ccccc2)oc2cc(O)cc(O)c12" ?
A: f

Q: Report whether reported Ratioc (ratio of CA B to A to CA A to B) is lower than 2 (strictly) for "COc1ccc([C@@H]2CC(=O)c3c(O)cc(O)cc3O2)cc1O"
A: t

Q: A record lists "O=c1cc(-c2ccccc2)oc2ccccc12" . Is its Ratioc (ratio of CA B to A to CA A to B) below 2?
A: t

Q: Just wondering, is Ratioc (ratio of CA B to A to CA A to B) of "COc1ccc(-c2cc(=O)c3c(OC)c(OC)c(OC)c(OC)c3o2)cc1" below 2?
A: t

Q: For this molecule, is Ratioc (ratio of CA B to A to CA A to B) lower than 2? "O=c1cc(-c2ccc(O)c(O)c2)oc2cc(O)cc(O)c12"
A: f
